Just for reference, patent US20220162261A1 is where these values come from.

Target: T1, α4β1 (R&D Systems #5668-A4) (UniProt P13612 34-970; P05556 21-728, limits assumed)
T1 construct: bought; also called soluble α4β1
Experiment: competition ELISA vs VCAM-1
Bridge positions count the residues as written; N and C are the ends. Square brackets hold non-standard residues; d marks the D form. NMeR = CN[C@@H](CCCNC(=N)N)C(=O)O; Pen = CC(C)(S)[C@H](N)C(=O)O
Listed binders paired with reported IC50
Give the value in nM but do not write nM after it.

[
  {
    "binder": "Ac-[Pen][NMeR]SDTL[Pen]WE[dK]-NH2 (disulfide 1-7; not fully specified (residue 10); printed as (Ac Pen N-Me-R S D T L Pen W E k NH2)2 DIG, disulfide Pen-Pen; also: dimer, two subunits joined by DIG linker, also called peptide 217) [SEQ ID NO: 217]",
    "IC50 / nM": 315
  }
]

Next binder, IC50 to be filled in.
stdin: For Ac-C[NMeR]SDTLCGE-NH2 (disulfide 1-7 (inferred), also called peptide 198) [SEQ ID NO: 198] , what is its reported IC50?
stdout: 1290
